Tested on: BDF1 mice, P388 leukemia ip, median survival T/C
Assay: NCI In Vivo Anticancer Drug Screen. Data for tumor model P388 Leukemia (intraperitoneal) in B6D2F1 (BDF1) mice
Settings: endpoint: median survival time; dose: 100.0 mg/kg/injection; schedule: Q04DX003 (ip); vehicle: Klucel (hydroxypropylcellulose) (HPC); higher = longer survival
Toxic doses and inconclusive results are not listed.
Listed below: T/C values for each entry.

Recorded results for 8 compounds are shown here.
O=[N+]([O-])c1ccccc1NC1c2ccccc2Oc2ccccc21 ... 116 % of control
CC1(C)Cc2cc3cc(Cl)ccc3nc2-c2ccccc21 ... 110 % of control
CC(C)=CCNc1ncnc2c1ncn2C1OC(CO)C(O)C1O (stereo not drawn) ... 100 % of control
Cn1c(CS)nc2ccccc21 ... 96 % of control
CCOC(=O)C1CCCC23CC(CC12)C(C)(C)C3Br (stereo not drawn) ... 100 % of control
CCOC(=O)COc1ccc(C=O)cc1 ... 103 % of control
CC[n+]1ccc(Cc2ccc([N+](=O)[O-])cc2)cc1 ... 100 % of control
COc1cc2c3c(c1)C(=O)CCN3CCC2 ... 95 % of control

Q. Please indicate T/C recorded for `Cc1c(C(=O)O)nc(/C=C/C(Cl)(Cl)Cl)[nH]c1=O`
A. 115 % of control

Q. Please indicate T/C recorded for `COC(=O)c1c(I)cccc1[N+](=O)[O-]`
A. 91 % of control

Q. Please indicate T/C recorded for `Cc1cc(C)n(CO)n1`
A. 108 % of control

Q. Please indicate T/C recorded for `C=CCNC(=S)Nc1ccc(C)cc1`
A. 104 % of control

Q. Please indicate T/C recorded for Cc1ccc(NCC(O)CN2CCOCC2)cc1 (stereo not drawn)
A. 108 % of control

* * *

Listed below: T/C values for each entry.
Tested on: BDF1 mice, P388 leukemia ip, median survival T/C
Experiment: NCI In Vivo Anticancer Drug Screen. Data for tumor model P388 Leukemia (intraperitoneal) in B6D2F1 (BDF1) mice
Details: endpoint: median survival time; dose: 400.0 mg/kg/injection; schedule: Q04DX002 (ip); vehicle: saline with Tween-80; higher = longer survival
Inconclusive results and toxic doses are left out.

Recorded results for 3 compounds are shown here.
CN1CCCC(C(=O)c2ccccc2)S1(=O)=O (centres undefined) ... 107 % of control
CC(=O)n1cc(CCC(=O)O)c2ccccc21 ... 102 % of control
CN(c1ccccc1)c1nc(=O)c2cc3ccc(=O)oc3cc2o1 ... 100 % of control

Q. Please indicate T/C recorded for `CC1(C)Oc2cc3oc(C(=O)O)cc(=O)c3cc2-c2ccc(O)cc21`
A. 108 % of control

* * *

Test system: BDF1 mice, P388 leukemia ip, median survival T/C
Test: NCI In Vivo Anticancer Drug Screen. Data for tumor model P388 Leukemia (intraperitoneal) in B6D2F1 (BDF1) mice
Details: endpoint: median survival time; dose: 25.0 mg/kg/injection; schedule: Q01DX009 (ip); vehicle: water
Method: The antitumor activity of compounds was measured in mice bearing transplantable tumors. Survival or tumor size were measured and the results are expressed as the measurement made in the treated group (T) divided by the measurement made in the vehicle treated control group (C). The tumor model used in this assay is P388 Leukemia (intraperitoneal) in B6D2F1 (BDF1) mice
Toxic doses and inconclusive results are not listed. The calls were made as follows: active = survival T/C of 150% or more; inactive = T/C below 125% in these data.
Field 'call' accepts active, inactive

Field: example entries. Status: answers known.
CCOC(=O)/C=C(\C)Nc1ccc(NC(C)=O)cc1 ... inactive
CC(C(=O)O)C(=O)O.[NH-]CC[NH-].[Pt+2] ... active
Clc1ccc(-c2cc(=[N+]3CCOCC3)ss2)cc1 ... inactive
COC1OCC(N=[N+]=[N-])C2OC12 (stereo unspecified) ... inactive
Nc1nccnc1C(=O)O ... inactive

Kindly consider the entry below.
Q. Could you please tell me the result logged for `CCOC(=O)Nc1nc(NC(=O)OCC)c(Cl)nc1Cl` in this assay?
A. inactive
